pKi tested on 5-hydroxytryptamine receptor 6 (Homo sapiens, UniProt P50406): recorded values
Sequence (P50406 whole entry): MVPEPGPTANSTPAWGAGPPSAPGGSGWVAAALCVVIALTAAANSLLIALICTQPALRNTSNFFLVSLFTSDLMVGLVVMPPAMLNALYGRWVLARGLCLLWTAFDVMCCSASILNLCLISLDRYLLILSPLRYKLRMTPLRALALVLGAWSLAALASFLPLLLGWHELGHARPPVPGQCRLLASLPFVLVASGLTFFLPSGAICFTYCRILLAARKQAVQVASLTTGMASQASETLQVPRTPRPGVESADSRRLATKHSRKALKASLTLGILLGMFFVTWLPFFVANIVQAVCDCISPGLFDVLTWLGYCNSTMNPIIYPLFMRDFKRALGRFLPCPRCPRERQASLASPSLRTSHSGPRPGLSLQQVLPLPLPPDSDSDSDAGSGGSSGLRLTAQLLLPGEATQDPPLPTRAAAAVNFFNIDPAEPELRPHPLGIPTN
Numbers only, as −log10 of the molar value.

See these solved cases before continuing.
1. CNCCc1cn(S(=O)(=O)c2ccccc2)c2ccc(OC)cc12
7.64
2. CCN(CC)CCc1cn(S(=O)(=O)c2ccc(N)cc2)c2ccccc12
9.22
3. CC(=O)Nc1ccc(S(=O)(=O)n2cc(CCN(C)C)c3ccccc32)cc1
7.57
4. CN(C)CCc1cn(S(=O)(=O)c2ccccc2)c2ccc(O)cc12
7.55
5. COc1ccc2c(c1)c(CCN(C)Cc1ccccc1)cn2S(=O)(=O)c1ccccc1
7.37

# map each compound to its pKi
1. COc1ccc2c(c1)c(CCN(C)Cc1ccccc1)cn2S(=O)(=O)c1ccc(N)cc1
2. CCN(CC)CCc1cn(S(=O)(=O)c2ccccc2)c2ccc(OC)cc12
3. CCN(CC)CCc1cn(S(=O)(=O)c2ccc(N)cc2)c2ccc(OC)cc12
4. COc1ccc2c(c1)c(CCN(C)C)cn2S(=O)(=O)c1ccc(NC(C)=O)cc1
5. CCN(CC)CCc1cn(S(=O)(=O)c2ccc(NC(C)=O)cc2)c2ccccc12
6. CCN(CC)CCc1cn(S(=O)(=O)c2ccc(NC(C)=O)cc2)c2ccc(OC)cc12

1: 8.52; 2: 8.21; 3: 9.22; 4: 7.47; 5: 7.05; 6: 6.64

---

# Test system: HEK293
# Protocol: Inhibition of 5-HT stimulated cAMP production in HEK-5-HT6 cells
# Type: functional, cell-based
# Condition Notes: Homo sapiens
Give measured pIC50 for each item. Keep answers brief.
Answers are plain numbers, as −log10 of the molar value.

1) Cc1cn(S(=O)(=O)c2ccc(N)cc2)c2ccccc12
6.49

Give pIC50 for the following molecule: `CN(C)Cc1cn(S(=O)(=O)c2ccccc2)c2ccccc12` 6.06
